Task for the reader: assign each of the following binders its reported median log2 fold change.
biological target: MAP1LC3A, Q9H492; test: median log2 fold change of GCK-ALFA target abundance (FLAG IP / Myc IP barcode read proportion) (log2 ratio); each designed protein is fused to an ALFA-tag nanobody in HEK293 cells to bring the named protein to FLAG-tagged glucokinase (GCK); Myc marks an untargeted standard; higher = target protein stabilised (more abundant); conditions: target protein: 3xFLAG-MCP-GCK-ALFA reporter; HEK293 landing pad (RPLP)
In all, about 2,300 sequences were measured (“median log2 fold change of GCK-ALFA target abundance (FLAG IP / Myc IP barcode read proportion)”: median about 0.095, lowest 2% from about -0.47 on). Many of the other results were omitted from the sample, so the lowest values are more common in it than they were.
One number for each entry.

Hey, quick one: what's median log2 fold change for each of these?
1. LC3A_free_8_2523 (protein) ASQAFADAAVKILDELEEKLVKLLKEKGASRLDILEAELLVGSIIAEVISLVDESIEAILKSIKEGLEELVEELEEHKEEVTKLANEALKKIEEKAKELK
2. LC3A_3_1416 (protein) MEEAKKKALEALKKAGHSEETLKALNELVDLLEARGAEEEAKEVLELVLENKDISSELLLEVLNEAIELLTVKKLSPEEVIKELKEELRIARNEEEIIEL

1. -0.0394
2. 0.297

// for each binder below, give its median log2 fold change
1. LC3A_28_1013 (protein) MSIVEETKKKIEEALKEAEKGEDAYLEVEITSEATQEEVEEVLELIEKAAKEVSKLPNVKLYVVIYDDSNQENHQLIVDAADRIEEKYPNVHVIVAYDDE
2. LC3A_28_855 (protein) SETRKSIEEAREELEKAREAKEPAVITVTVTSDVTEEEVEEVIELIKEAAEASKEVPDLTLIIDFEGEIDPEHLNRITDAADEAIKKNPKLNVIFALDEE
3. LC3A_147_431 (protein) YITTVDIDVLTKDAEEEVIKAAKEIEEELKAKGYEVELEIEVEELENGEKYIHIKITVKTETEEEAKEAADYIVDKFEELEEKLKDKILGSIISVEIEEA

1. -0.261
2. 0.127
3. 0.117
